// data source = ChEMBL document CHEMBL1201862

target: RNA-binding protein pos-1 (Caenorhabditis elegans, UniProt G5EF15); test: disruptors of C. elegans POS-1 RNA interaction – biochemical, fluorescence polarization, dose response (AID 1964);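 note: purified POS-1 fused to maltose binding protein made in E. coli; potency of compounds blocking POS-1 binding to fluorescent RNA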
Sequence (G5EF15 whole entry, the tested form may be a part): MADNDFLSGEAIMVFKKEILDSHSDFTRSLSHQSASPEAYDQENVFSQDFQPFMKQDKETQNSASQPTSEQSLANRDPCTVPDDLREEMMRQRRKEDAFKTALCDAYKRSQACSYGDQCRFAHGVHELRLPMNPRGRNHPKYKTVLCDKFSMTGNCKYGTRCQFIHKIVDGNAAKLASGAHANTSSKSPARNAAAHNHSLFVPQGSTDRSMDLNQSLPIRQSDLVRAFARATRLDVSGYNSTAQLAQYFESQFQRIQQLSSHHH
Activity calls are given as the source filed them. Cut-off read from the data, not from the text of the source: actives have a measured EC50 and inactives only a lower limit.
readout_name: EC50

Record excerpt, results attached:
COc1ccc(/C=C/c2nc3sc4c(c3c(=O)o2)CCC4)cc1 :: 6.97 µM (inconclusive)
N#CC1=C(N)Oc2ccc3ccc(O)cc3c2C1c1ccsc1 (configuration not stated) :: 76.1 µM (inconclusive)

Dear colleague, could you send me EC50 for each of the items below? Thanks.
1. COC(=O)c1ccc(-n2c(CCC(=O)O)ccc2-c2ccccc2)cc1
2. COC(=O)c1ccccc1NCc1cc(=O)oc2cc(O)c(O)cc12
3. CCc1ccc(NC(=O)/C(C#N)=C/c2cc3ccc(C)cc3nc2N2CCOCC2)cc1
4. CC(C)c1nnc(N2C(=O)C(O)=C(C(=O)c3cccs3)C2c2ccccc2)s1 (configuration not stated)
5. CN(C)c1ccc(/C=C2\N=C(C(C)(C)C)OC2=O)cc1

1. > 300 µM (not active)
2. 19 µM (inconclusive)
3. 47.9 µM (active)
4. 33.9 µM (inconclusive)
5. 7.17 µM (active)
